Catalogue of inhibition of growth at 20 µM values
System: Escherichia coli
Experimental Protocol: Antibacterial activity against Escherichia coli OP50 assessed as bacterial growth inhibition at 20 uM by CLSI protocol based broth microdilution method
Type: functional
Settings: read-out: GI

Use the examples below as a reference point.
>>> result("C=C[C@]1(C)C[C@@H](OC(C)=O)[C@@]2(C)C3[C@H](O)CC[C@@]3(CC[C@H]2C)[C@@H](C)[C@@H]1O (stereo partly drawn)")
"20%"
>>> result("C=C[C@]1(C)C[C@@H](OC(C)=O)[C@@]2(C)C3C(=O)CC[C@@]3(CC[C@H]2C)[C@@H](C)[C@@H]1O (stereo partly drawn)")
"61%"
>>> result("C=C[C@]1(C)C[C@@H](OC(=O)CO)[C@@]2(C)C3C(=O)[C@H](O)CC3(CC[C@H]2C)[C@@H](C)[C@@H]1O (single isomer, unassigned)")
"70%"
>>> result("C=C[C@]1(C)C[C@@H](OC(=O)CO[C@H]2O[C@H](CO)[C@@H](O)[C@H](O)[C@H]2O)[C@@]2(C)C3C(=O)CCC3(CC[C@H]2C)[C@@H](C)[C@@H]1O (single isomer, unassigned)")
"21%"
>>> result("C[C@@H]1CC[C@@]23CCC(=O)C2[C@]1(C)[C@H](OC(=O)CO)C[C@@]1(C)[C@H](O)CO[C@H]1[C@@H]3C (stereo partly drawn)")
"34%"
>>> result("CC(=O)OC[C@@H](O)[C@]1(C)C[C@@H](OC(=O)CO)[C@@]2(C)C3C(=O)CC[C@@]3(CC[C@H]2C)[C@@H](C)[C@@H]1O (stereo partly drawn)")
"21%"
>>> result("C[C@@H]1CC[C@@]23CCC(=O)C2[C@]1(C)[C@H](OC(=O)CO)C[C@@](C)([C@H](O)CO)[C@@H](O)[C@@H]3C (stereo partly drawn)")
"50%"

Kindly consider the entry below.
Task: What value of inhibition of growth at 20 µM has been reported for the following compound? C=C[C@]1(C)C[C@@H](OC(=O)CO)[C@@]2(C)C3C(=O)CC[C@@]3(CC[C@H]2C)[C@@H](C)[C@@H]1O (stereo partly drawn)
Result: 71%

###

System: RAW264.7
Experimental Protocol: Cytotoxicity activity mouse RAW264.7 cells assessed as reduction in cell viability at upto 100 uM incubated for 48 hrs by CCK-8 assay
Format: toxicity, cell-based
Settings: raw264.7, 48 h
Quantity Kind: Activity

Use the examples below as a reference point.
>>> result("C=C[C@@]1(C)C[C@H](C)[C@]23CCC(=O)C2[C@@](C)([C@H](C)CC3)[C@H](OC(C)=O)C1 (stereo partly specified)")
"Non-Toxic"
>>> result("C=C[C@]1(C)C[C@@H](OC(C)=O)[C@@]2(C)C3=CC(=O)C[C@@]3([C@H](O)C[C@H]2C)[C@@H](C)[C@@H]1O")
"Non-Toxic"
>>> result("CC(=O)OC[C@@H](O)[C@]1(C)C[C@@H](OC(=O)CO)[C@@]2(C)C3C(=O)CC[C@@]3(CC[C@H]2C)[C@@H](C)[C@@H]1O (stereo partly specified)")
"Non-Toxic"
>>> result("C=C[C@]1(C)C[C@@H](O)[C@@]2(C)C3C(=O)CC[C@@]3(CC[C@H]2C)[C@@H](C)[C@@H]1O (stereo partly specified)")
"Non-Toxic"

Task: What value of Activity has been reported for the following molecule? C=C[C@@]1(C)C[C@H](C)[C@]23CC[C@@H](O)C2[C@@](C)([C@H](C)CC3)[C@H](OC(C)=O)C1 (stereo partly specified)
Result: Non-Toxic

Task: Moving on to the next molecule: C=C[C@]1(C)C[C@@H](OC(=O)CO)[C@@]2(C)C3C(=O)CC[C@@]3(CC[C@H]2C)[C@@H](C)[C@@H]1O (stereo partly specified)
Result: Non-Toxic

Task: Moving on to the next molecule: C=C[C@]1(C)C[C@@H](O)[C@@]2(C)C3CCC[C@@]3(CC[C@H]2C)[C@@H](C)C1 (stereo partly specified)
Result: Non-Toxic

Task: Moving on to the next molecule: C=C[C@]1(C)C[C@@H](O)[C@@]2(C)C3=CC(=O)C[C@@]3(CC[C@H]2C)[C@@H](C)[C@@H]1O
Result: Non-Toxic

Provenance of the data: ChEMBL document CHEMBL5352418
